Experiment: qHTS for identification of novel therapeutic agents for treatment of microphthalmiaassociated transcription factor (MiT) renal cell carcinoma (RCC) (AID 1963991); note: potency is the fitted concentration of half-maximal effect
Conditions: TFE3-RCC UOK109 viability, CellTiter-Glo, 48 h; active = Z-AUC below -0.8 in all three lines
Results filed as inconclusive are left out. Activity calls are given as the source filed them.

{"COMPOUND": "CN1CC[C@@H](c2c(O)cc(O)c3c(=O)cc(-c4ccccc4Cl)oc23)[C@@H](O)C1", "Potency": "118 nM (active)"}
{"COMPOUND": "Nc1ncnc2c1c(-c1cnc3[nH]ccc3c1)nn2C1CCCC1", "Potency": "264 nM (active)"}
{"COMPOUND": "O=C(Nc1ncc(-c2cc(C(F)F)nn2-c2c(Cl)cccc2Cl)s1)C1CC1", "Potency": "935 nM (active)"}
{"COMPOUND": "CC[C@@H]1C(=O)N(C)c2cnc(Nc3ccc(C(=O)NC4CCN(C)CC4)cc3OC)nc2N1C1CCCC1", "Potency": "4180 nM (active)"}
{"COMPOUND": "OCCCNc1cc(-c2ccnc(Nc3cccc(Cl)c3)n2)ccn1", "Potency": "209 nM (active)"}
{"COMPOUND": "CC[C@@H]1C(=O)N(C)c2cnc(Nc3ccc(C(=O)NC4CCC(N5CCN(CC6CC6)CC5)CC4)cc3OC)nc2N1C(C)C (some centres undefined)", "Potency": "3720 nM (active)"}
{"COMPOUND": "NC(=O)Nc1cc(-c2cccc(F)c2)sc1C(=O)N[C@H]1CCCNC1", "Potency": "935 nM (active)"}
{"COMPOUND": "CNC(=O)CN1CCC(Oc2cc3c(Nc4cccc(Cl)c4F)ncnc3cc2OC)CC1", "Potency": "1870 nM (active)"}
{"COMPOUND": "Nc1cc(C(F)(F)F)c(-c2cc(N3CCOCC3)nc(N3CCOCC3)n2)cn1", "Potency": "662 nM (active)"}
